- test system: JMJD2C (Homo sapiens (Human), UniProt Q9H3R0)
- Sequence (Q9H3R0 2-372): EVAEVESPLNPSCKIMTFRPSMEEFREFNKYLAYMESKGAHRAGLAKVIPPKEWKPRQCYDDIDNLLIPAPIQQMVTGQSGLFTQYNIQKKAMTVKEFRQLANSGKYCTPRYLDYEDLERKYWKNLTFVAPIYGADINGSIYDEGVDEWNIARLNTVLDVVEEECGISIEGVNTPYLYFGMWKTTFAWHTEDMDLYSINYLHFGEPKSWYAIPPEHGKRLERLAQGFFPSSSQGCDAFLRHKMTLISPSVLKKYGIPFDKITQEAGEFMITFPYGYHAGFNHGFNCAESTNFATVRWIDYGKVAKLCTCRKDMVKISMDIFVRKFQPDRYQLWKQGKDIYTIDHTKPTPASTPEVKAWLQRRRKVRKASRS
property measured: IC50

O=C(O)c1ccnc(-n2nccc2-c2ccccc2)c1 [Example 26]    1000 to 10000 nM
CCc1cc(C)ccc1COc1ccnn1-c1cc(C(=O)O)ccn1 [Example 135]    1000 to 10000 nM
O=C(O)c1ccnc(-n2nccc2OCc2ccc(F)cc2OCc2ccc(F)cc2)c1 [Example 118]    100 to 1000 nM
COc1cc(C)ccc1COc1ccnn1-c1cc(C(=O)O)ccn1 [Example 133]    100 to 1000 nM
O=C(O)c1ccnc(-n2nc(-c3ccccc3F)cc2O)c1 [Example 5]    1000 to 10000 nM

[in] Return reported IC50; argument: Oc1cc(Cc2ccccc2Cl)nn1-c1cc(-c2nnn[nH]2)ccn1 [Example 167]
[out] 1000 to 10000 nM

[in] Given Cc1ccc(-c2cc(C)nn2-c2cc(C(=O)O)ccn2)cc1 [Example 29] , state its recorded IC50.
[out] 1000 to 10000 nM

[in] # lookup: IC50 of O=C(O)c1ccnc(-n2nccc2OC2CCCc3cc(F)ccc32)c1 (stereo not drawn) [Example 148]
[out] 1000 to 10000 nM

[in] Name the recorded IC50 for COc1ccc(COc2ccnn2-c2cc(C(=O)O)ccn2)cc1 [Example 43] .
[out] 100 to 1000 nM

[in] Find the recorded IC50 belonging to O=C(O)c1ccnc(-n2nccc2-c2cccc(F)c2)c1 [Example 16] and report it.
[out] 100 to 1000 nM

[in] # lookup: IC50 of Cc1ccc(COc2ccnn2-c2cc(C(=O)O)ccn2)c(F)c1 [Example 131]
[out] 100 to 1000 nM

[in] Item CCc1cc(-c2ccc(C)cc2)n(-c2cc(C(=O)O)ccn2)n1 [Example 30] has what recorded IC50?
[out] 1000 to 10000 nM

* * *

What follows is a record of pIC50 for UniProt:Q9UGL1.
pIC50: −log10 of the molar value.

Cc1cc(C#N)ccc1COc1ccnn1-c1cc(C(=O)O)ccn1 [Example 125]    > 7.00
Cc1ccnn1-c1cc(C(=O)O)ccn1 [Example 31]    5.00 to 6.00
O=C(O)c1ccnc(-n2nccc2OCc2ccc(Cl)cc2F)c1 [Example 75]    > 7.00
Cc1ccc(COc2ccnn2-c2cc(C(=O)O)ccn2)cc1 [Example 55]    > 7.00
O=C(O)c1ccnc(-n2nccc2-c2ccc3cn[nH]c3c2)c1 [Example 24]    6.00 to 7.00

[in] For Cc1ccc(-c2cc(C)nn2-c2cc(C(=O)O)ccn2)cc1 [Example 29] , what is its reported pIC50?
[out] 5.00 to 6.00

[in] Quick one: pIC50 of COc1ccc(COc2ccnn2-c2cc(C(=O)O)ccn2)cc1 [Example 43] ?
[out] > 7.00

[in] Quick check: pIC50 of Cc1c(-c2ccccc2)cnn1-c1cc(C(=O)O)ccn1 [Example 36] ?
[out] 6.00 to 7.00

* * *

- test system: Jarid1A (Homo sapiens (Human), UniProt P29375)
- Sequence (P29375 1-1090): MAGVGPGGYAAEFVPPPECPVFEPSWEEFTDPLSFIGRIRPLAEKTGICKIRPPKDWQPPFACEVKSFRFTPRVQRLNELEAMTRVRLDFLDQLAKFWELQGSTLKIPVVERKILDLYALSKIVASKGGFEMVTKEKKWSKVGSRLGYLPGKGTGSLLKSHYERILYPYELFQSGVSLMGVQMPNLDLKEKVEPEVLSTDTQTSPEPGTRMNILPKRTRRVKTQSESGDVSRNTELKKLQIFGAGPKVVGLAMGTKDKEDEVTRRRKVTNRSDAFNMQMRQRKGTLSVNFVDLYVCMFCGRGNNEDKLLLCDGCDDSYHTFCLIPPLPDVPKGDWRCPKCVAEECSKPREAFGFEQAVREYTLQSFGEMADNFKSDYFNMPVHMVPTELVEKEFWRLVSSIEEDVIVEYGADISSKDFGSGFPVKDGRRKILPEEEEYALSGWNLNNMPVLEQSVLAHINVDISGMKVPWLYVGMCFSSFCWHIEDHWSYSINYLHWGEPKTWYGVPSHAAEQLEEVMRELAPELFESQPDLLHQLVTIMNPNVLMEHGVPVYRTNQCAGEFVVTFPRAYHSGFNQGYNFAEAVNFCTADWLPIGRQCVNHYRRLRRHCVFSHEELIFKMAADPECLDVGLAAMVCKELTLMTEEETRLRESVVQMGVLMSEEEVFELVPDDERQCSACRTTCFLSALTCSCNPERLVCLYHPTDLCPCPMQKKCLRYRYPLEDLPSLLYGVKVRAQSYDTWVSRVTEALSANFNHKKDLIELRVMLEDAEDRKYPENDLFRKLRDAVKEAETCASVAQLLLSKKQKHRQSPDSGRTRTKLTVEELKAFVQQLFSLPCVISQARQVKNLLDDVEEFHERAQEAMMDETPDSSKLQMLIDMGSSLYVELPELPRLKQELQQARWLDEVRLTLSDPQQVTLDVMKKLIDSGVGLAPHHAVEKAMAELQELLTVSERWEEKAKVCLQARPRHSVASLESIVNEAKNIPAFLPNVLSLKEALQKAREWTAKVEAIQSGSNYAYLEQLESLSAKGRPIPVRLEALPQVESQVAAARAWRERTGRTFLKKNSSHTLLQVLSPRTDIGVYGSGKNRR
- assay method text: Jarid1A in vitro enzyme inhibition assay (TR-FRET)
- Type: biochemical
pIC50: −log10 of the molar value.
property measured: pIC50

Worked cases, pIC50 given:
Cc1cc(Br)ccc1COc1ccnn1-c1cc(C(=O)O)ccn1    6.00 to 7.00
CC(Oc1cc(F)ccc1COc1ccnn1-c1cc(C(=O)O)ccn1)c1ccccc1 (stereo not drawn)    6.00 to 7.00
O=C(O)c1ccnc(-n2nc(C3CC3)cc2O)c1    > 7.00
O=C(O)c1ccnc(-n2nccc2OCC2CC(F)(F)C2)c1    > 7.00
CCc1ccc(COc2ccnn2-c2cc(C(=O)O)ccn2)cc1F    > 7.00

[in] What does the data say about its pIC50? Entry: CCc1ccc(COc2ccnn2-c2cc(C(=O)O)ccn2)c(F)c1
[out] 6.00 to 7.00

[in] Quick check: pIC50 of O=C(O)c1ccnc(-n2nccc2OCc2ccc(Cl)c(OCC3CC3)c2)c1 ?
[out] 6.00 to 7.00

[in] Dear colleague, I am looking for the recorded pIC50 of the following compound: O=C(O)c1ccnc(-n2nccc2-c2ccc3cn[nH]c3c2)c1
[out] 6.00 to 7.00

[in] Recorded pIC50 for O=C(O)c1ccnc(-n2nccc2OCc2ccc(Cl)c(OCc3ccc(F)cc3)c2)c1 , please?
[out] > 7.00

* * *

Test system UniProtKB P29375, pIC50 listed for each of the compounds.
pIC50: −log10 of the molar value.

Worked cases, pIC50 given:
O=C(O)c1ccnc(-n2nccc2-c2ccc(F)c(F)c2)c1    6.00 to 7.00
O=C(O)c1ccnc(-n2nccc2OCc2ccc(Cl)cc2OCc2ccc(F)cc2)c1    6.00 to 7.00
O=C(O)c1ccnc(-n2nccc2OCc2ccc(Br)cc2)c1    > 7.00

[in] // lookup pIC50 | system=UniProtKB P29375 | key= CCc1cc(Cl)ccc1COc1ccnn1-c1cc(C(=O)O)ccn1
[out] 6.00 to 7.00

* * *

Recorded measurements of pIC50, one per entry
- test system: Jarid1B (Homo sapiens (Human))
- Sequence (Q9UGL1 2-751): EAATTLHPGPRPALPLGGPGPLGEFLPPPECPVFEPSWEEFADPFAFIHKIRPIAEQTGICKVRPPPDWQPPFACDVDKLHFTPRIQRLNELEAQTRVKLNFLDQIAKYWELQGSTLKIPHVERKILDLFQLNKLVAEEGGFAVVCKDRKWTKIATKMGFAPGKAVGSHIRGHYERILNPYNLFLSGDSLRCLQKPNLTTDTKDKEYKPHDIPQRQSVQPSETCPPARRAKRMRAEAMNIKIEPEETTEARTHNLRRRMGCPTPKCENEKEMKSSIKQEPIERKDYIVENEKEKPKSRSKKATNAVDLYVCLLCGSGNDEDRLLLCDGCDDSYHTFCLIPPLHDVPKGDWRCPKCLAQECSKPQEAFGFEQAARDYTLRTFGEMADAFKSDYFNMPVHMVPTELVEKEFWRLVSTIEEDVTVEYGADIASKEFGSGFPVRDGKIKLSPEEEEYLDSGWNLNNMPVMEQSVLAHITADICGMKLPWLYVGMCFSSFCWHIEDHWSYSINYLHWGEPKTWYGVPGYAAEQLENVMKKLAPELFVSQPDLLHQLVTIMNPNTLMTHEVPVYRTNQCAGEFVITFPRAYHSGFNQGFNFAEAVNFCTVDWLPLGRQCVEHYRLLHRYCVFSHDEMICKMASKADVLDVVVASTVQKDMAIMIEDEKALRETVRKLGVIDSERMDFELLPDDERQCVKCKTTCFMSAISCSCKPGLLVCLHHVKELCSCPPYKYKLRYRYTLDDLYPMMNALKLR
- assay method text: Jarid1B in vitro enzyme inhibition assay (TR-FRET)
- Type: biochemical
pIC50: −log10 of the molar value.

As a guide, the following entries are already answered.
O=C(O)c1ccnc(-n2nc(COc3ccccc3)cc2O)c1    6.00 to 7.00
O=C(O)c1ccnc(-n2ncc(CCO)c2OCc2ccc(F)cc2)c1    > 7.00

[in] Given the compound O=C(O)c1ccnc(-n2nccc2OCc2ccc(C(F)(F)F)cc2)c1 , what is its reported pIC50?
[out] > 7.00

[in] What does the record list as pIC50 for O=C(O)c1ccnc(-n2nccc2OCc2ccc(F)cc2/C=C/c2ccc(F)cc2)c1 ?
[out] 6.00 to 7.00

[in] Find the recorded pIC50 belonging to O=C(O)c1ccnc(-n2nccc2-c2cccc(F)c2)c1 and report it.
[out] 6.00 to 7.00

* * *

- test system: JMJD2C (Homo sapiens (Human), UniProt Q9H3R0)
pIC50: −log10 of the molar value.
Below: a set of entries, each annotated with reported pIC50.

Check out these entries, answers already filled in.
O=C(O)c1ccnc(-n2nccc2OCc2ccc(F)cc2F)c1    6.00 to 7.00
Cc1ccc(COc2ccnn2-c2cc(C(=O)O)ccn2)cc1Cl    > 7.00
O=C(O)c1ccnc(-n2nc(C3(c4ccc(Cl)cc4)CC3)cc2O)c1    5.00 to 6.00
Cc1cc(F)ccc1COc1ccnn1-c1cc(C(=O)O)ccn1    6.00 to 7.00
O=C(O)c1ccnc(-n2nccc2OCc2cccc(O)c2)c1    > 7.00
Cc1nn(-c2cc(C(=O)O)ccn2)c(O)c1C    6.00 to 7.00
N#Cc1cccc(COc2ccnn2-c2cc(C(=O)O)ccn2)c1    > 7.00
CCCc1cc(O)n(-c2cc(C(=O)O)ccn2)n1    6.00 to 7.00
O=C(O)c1ccnc(-n2nccc2OCC2CC(F)(F)C2)c1    > 7.00
O=C(O)c1ccnc(-n2nc(Cc3c(F)cccc3F)cc2O)c1    5.00 to 6.00

[in] For JMJD2C (Homo sapiens (Human), UniProt Q9H3R0), provide pIC50 of CC(Oc1cc(Cl)ccc1COc1ccnn1-c1cc(C(=O)O)ccn1)c1ccccc1 (centres unmarked) please.
[out] 5.00 to 6.00

[in] So what pIC50 did O=C(O)c1ccnc(-n2nccc2OCc2ccc3cn[nH]c3c2)c1 get with JMJD2C (Homo sapiens (Human), UniProt Q9H3R0)?
[out] 5.00 to 6.00

[in] Could you share what pIC50 was measured for O=C(O)c1ccnc(-n2nc(Cc3ccccc3Cl)cc2O)c1 , tested on JMJD2C (Homo sapiens (Human), UniProt Q9H3R0)?
[out] 5.00 to 6.00

[in] Form: Entry = CC(C)COc1cc(Cl)ccc1COc1ccnn1-c1cc(C(=O)O)ccn1 | System = JMJD2C (Homo sapiens (Human), UniProt Q9H3R0) | pIC50 = ____
[out] 5.00 to 6.00

[in] Form field - read-out: pIC50; system: JMJD2C (Homo sapiens (Human), UniProt Q9H3R0); submitted item: CCCCOc1cc(Cl)ccc1COc1ccnn1-c1cc(C(=O)O)ccn1
[out] 5.00 to 6.00

[in] Param readout = pIC50; param system = JMJD2C (Homo sapiens (Human), UniProt Q9H3R0); param query = Cc1c(-c2ccccc2)cnn1-c1cc(C(=O)O)ccn1 ; response: value
[out] < 5.00

* * *

pIC50: −log10 of the molar value.
A set of molecules tested on JMJD2A (Homo sapiens (Human), UniProt O75164), with measured pIC50:

O=C(O)c1ccnc(-n2nccc2-c2ccc(F)cc2F)c1    6.00 to 7.00

Now for the molecule whose pIC50 we want.
[in] # pIC50 lookup, item Cc1ccc(COc2ccnn2-c2cc(C(=O)O)ccn2)c(C)c1
[out] 6.00 to 7.00
